pIC50 for assorted molecules
Biological target: C-C chemokine receptor type 1 (Homo sapiens)
Sequence (P32246 whole entry): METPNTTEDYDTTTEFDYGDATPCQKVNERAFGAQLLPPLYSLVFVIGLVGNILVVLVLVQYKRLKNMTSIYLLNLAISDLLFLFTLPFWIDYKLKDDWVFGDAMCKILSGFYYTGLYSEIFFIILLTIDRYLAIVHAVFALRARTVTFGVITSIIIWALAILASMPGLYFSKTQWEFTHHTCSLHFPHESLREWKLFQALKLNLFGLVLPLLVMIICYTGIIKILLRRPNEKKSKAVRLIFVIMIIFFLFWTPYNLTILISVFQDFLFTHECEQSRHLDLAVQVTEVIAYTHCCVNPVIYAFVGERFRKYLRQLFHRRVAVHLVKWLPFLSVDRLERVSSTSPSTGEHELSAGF
Assay: Antagonist activity at human CCR1 assessed as inhibition of MIP1alpha-induced calcium flux
pIC50: −log10 of the molar value.

CC1CCN(C(=O)C(CCn2cccc2C#N)NS(=O)(=O)c2cc(Cl)c(N)c(Cl)c2)CC1 (configuration not stated) = < 5.00

The record that follows has no pIC50 shown yet.
// CC1CCN(C(=O)C(CCn2cccc2C#N)NS(=O)(=O)c2cccc3[nH]ccc23)CC1 (racemic) : pIC50 value = < 5.00

---

molecular target: UniProtKB Q9H3N8; experiment: Antagonist activity at human histamine H4 receptor assessed as inhibition of histamine-induced calcium flux
Sequence (Q9H3N8 whole entry): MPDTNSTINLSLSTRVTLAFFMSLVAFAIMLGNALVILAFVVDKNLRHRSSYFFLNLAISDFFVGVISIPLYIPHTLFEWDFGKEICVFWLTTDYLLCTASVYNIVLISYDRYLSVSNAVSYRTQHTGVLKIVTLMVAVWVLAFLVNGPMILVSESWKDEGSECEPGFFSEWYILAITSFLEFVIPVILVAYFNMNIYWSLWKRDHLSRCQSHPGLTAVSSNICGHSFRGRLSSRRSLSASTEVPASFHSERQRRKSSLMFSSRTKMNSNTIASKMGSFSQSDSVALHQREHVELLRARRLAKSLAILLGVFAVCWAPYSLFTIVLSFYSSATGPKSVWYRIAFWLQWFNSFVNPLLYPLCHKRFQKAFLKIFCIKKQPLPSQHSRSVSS
pIC50: −log10 of the molar value.
property-label: pIC50

CC1CCN(C(=O)C(CCn2cccc2C#N)NS(=O)(=O)c2cc(Cl)c(N)c(Cl)c2)CC1 (configuration not stated) = < 5.00

// CC1CCN(C(=O)C(CCn2cccc2C#N)NS(=O)(=O)c2cccc3[nH]ccc23)CC1 (racemic) : pIC50 value = < 5.00

---

Biological target: C-C chemokine receptor type 10 (Homo sapiens, UniProt P46092)
Sequence (P46092 whole entry): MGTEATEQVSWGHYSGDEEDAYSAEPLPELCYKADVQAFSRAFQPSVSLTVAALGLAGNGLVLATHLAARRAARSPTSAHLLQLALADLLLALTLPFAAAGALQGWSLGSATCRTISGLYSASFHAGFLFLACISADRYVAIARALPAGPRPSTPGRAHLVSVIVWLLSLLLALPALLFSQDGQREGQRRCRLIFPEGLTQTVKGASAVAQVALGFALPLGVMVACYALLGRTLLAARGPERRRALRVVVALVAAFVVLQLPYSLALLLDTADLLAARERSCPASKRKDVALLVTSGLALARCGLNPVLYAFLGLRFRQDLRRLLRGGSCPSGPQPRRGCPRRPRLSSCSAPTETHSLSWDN
Assay: Antagonist activity at human CCR10 expressed in CHOK1 cells coexpressing aequorin/Galphaq assessed as inhibition of human CCL27-dependent calcium flux in presence of coelenterazine H by chemiluminescence assay
Type: functional, cell-based, CHO-K1
Conditions: read-out: pIC50 (converted)
property-label: IC50 (nM)
I only need the number, in nM, no unit after it.

Would you please look over these solved cases?
CC1CCN(C(=O)[C@@H](CCn2cccc2C#N)NS(=O)(=O)c2cc(Cl)c(N)c(Cl)c2)CC1 = 7.94
CC1CCN(C(=O)C(CCn2nccn2)NS(=O)(=O)c2cc(Cl)c(N)c(Cl)c2)CC1 (stereo not given) = 3160
N#Cc1cccn1CCC(NS(=O)(=O)c1cc(Cl)c(N)c(Cl)c1)C(=O)N1CCCCC1 (stereo not given) = 158

// CC1CCN(C(=O)C(CCn2ccnc2Cl)NS(=O)(=O)c2cc(Cl)c(N)c(Cl)c2)CC1 (stereo not given) : IC50 value = 501

---

molecular target: C-C chemokine receptor type 10 (Homo sapiens, UniProt P46092); assay: Antagonist activity at human CCR10 expressed in CHOK1 cells coexpressing aequorin/Galphaq assessed as inhibition of human CCL27-dependent calcium flux in presence of coelenterazine H by chemiluminescence assay; assay type: functional, cell-based, CHO-K1; details: read-out: pIC50 (converted)
property-label: log10 IC50 (log10 of the value in nM)
Response schema: value (number) is log10 of IC50 in units of nM.

Would you please look over these solved cases?
CC1CCN(C(=O)C(CCn2cccc2C#N)NS(=O)(=O)c2c(N)cc(Cl)cc2Cl)CC1 (centres undefined) = 1.60
CC1CCN(C(=O)C(CCn2cccn2)NS(=O)(=O)c2cc(Cl)c(N)c(Cl)c2)CC1 (centres undefined) = 3.20
CC1CCN(C(=O)C(CCn2cccc2C#N)NS(=O)(=O)c2cc(Cl)c(N)cc2Cl)CC1 (centres undefined) = 1.80
N#Cc1cccn1CCC(NS(=O)(=O)c1cccc2[nH]ccc12)C(=O)N1CCC(C(F)(F)F)CC1 (centres undefined) = 1.00

// CC1CCN(C(=O)C(CCn2cccc2C#N)NS(=O)(=O)c2cccc3ccccc23)CC1 (centres undefined) : log10 IC50 value = 1.70

// CC1CCN(C(=O)C(CCn2cccc2C#N)NS(=O)(=O)c2ccccc2)CC1 (centres undefined) : log10 IC50 value = 3.10

// N#Cc1cccn1CCC(NS(=O)(=O)c1cccc2[nH]ccc12)C(=O)N1CCCCC1 (centres undefined) : log10 IC50 value = 1.00

// CC1CCN(C(=O)C(CCn2nccc2Cl)NS(=O)(=O)c2cc(Cl)c(N)c(Cl)c2)CC1 (centres undefined) : log10 IC50 value = 2.40

---

pIC50 for assorted compounds
target: UniProt P41597; assay: Antagonist activity at human CCR2 assessed as inhibition of MCP1-induced calcium flux; format: functional
Sequence (P41597 whole entry): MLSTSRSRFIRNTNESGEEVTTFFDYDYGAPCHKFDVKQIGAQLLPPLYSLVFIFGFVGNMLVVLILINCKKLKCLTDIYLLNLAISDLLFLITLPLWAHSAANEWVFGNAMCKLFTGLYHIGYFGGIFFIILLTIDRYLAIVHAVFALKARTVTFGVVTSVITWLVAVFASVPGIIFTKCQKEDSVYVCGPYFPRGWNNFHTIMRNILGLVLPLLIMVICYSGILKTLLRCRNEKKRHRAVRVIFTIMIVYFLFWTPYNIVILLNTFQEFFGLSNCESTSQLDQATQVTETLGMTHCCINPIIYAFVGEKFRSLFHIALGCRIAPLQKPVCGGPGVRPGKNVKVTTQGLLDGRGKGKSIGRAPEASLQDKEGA
pIC50: −log10 of the molar value.

CC1CCN(C(=O)C(CCn2cccc2C#N)NS(=O)(=O)c2cc(Cl)c(N)c(Cl)c2)CC1 (configuration not stated) = < 5.00

The record that follows has no pIC50 shown yet.
Field pIC50 (UniProt P41597), entry CC1CCN(C(=O)C(CCn2cccc2C#N)NS(=O)(=O)c2cccc3[nH]ccc23)CC1 (racemic) : < 5.00

---

biological target: C-C chemokine receptor type 10 (Homo sapiens, UniProt P46092); test: Antagonist activity at human CCR10 expressed in CHOK1 cells coexpressing aequorin/Galphaq assessed as inhibition of CCL27-dependent calcium flux in presence of coelenterazine H by FLIPR assay; type: functional, cell-based, CHO-K1
property-label: IC50 (nM)
I only need the number, in nM, no unit after it.

CC1CCN(C(=O)C(CCn2cccc2C#N)NS(=O)(=O)c2cc(Cl)c(N)c(Cl)c2)CC1 (centres undefined) = 2
CC1CCN(C(=O)C(CCn2cccc2C#N)NS(=O)(=O)c2cccc3[nH]ccc23)CC1 (racemic) = 0.398

The record that follows has no IC50 shown yet.
// CC1CCN(C(=O)C(CCn2ccnc2[N+](=O)[O-])NS(=O)(=O)c2cc(Cl)c(N)c(Cl)c2)CC1 (centres undefined) : IC50 value = 251

---

test: Plasma concentration in Balb/C mouse at 30 mg/kg, ip bid measured after 1 hr; format: ADME, organism-based; conditions: in vivo, 1 h
property-label: concentration

// CC1CCN(C(=O)C(CCn2cccc2C#N)NS(=O)(=O)c2cccc3[nH]ccc23)CC1 (stereo in doubt; form 2) : concentration value = 3.2 µM

---

target: C-C chemokine receptor type 10 (Homo sapiens, UniProt P46092); assay: Antagonist activity at human CCR10 expressed in HEK cells assessed as inhibition of human CCL27-dependent cAMP production; type: functional, cell-based, HEK293
property-label: pIC50
pIC50 is defined as minus the log10 of a concentration measured in mol/L.

CC1CCN(C(=O)C(CCn2cccc2C#N)NS(=O)(=O)c2cc(Cl)c(N)c(Cl)c2)CC1 (configuration not stated) = 6.80

// CC1CCN(C(=O)C(CCn2cccc2C#N)NS(=O)(=O)c2cccc3[nH]ccc23)CC1 (racemic) : pIC50 value = 7.60

---

IC50 for assorted molecules
target: UniProt P51681; experiment: Antagonist activity at human CCR5 assessed as inhibition of RANTES-induced calcium flux
Sequence (P51681 whole entry): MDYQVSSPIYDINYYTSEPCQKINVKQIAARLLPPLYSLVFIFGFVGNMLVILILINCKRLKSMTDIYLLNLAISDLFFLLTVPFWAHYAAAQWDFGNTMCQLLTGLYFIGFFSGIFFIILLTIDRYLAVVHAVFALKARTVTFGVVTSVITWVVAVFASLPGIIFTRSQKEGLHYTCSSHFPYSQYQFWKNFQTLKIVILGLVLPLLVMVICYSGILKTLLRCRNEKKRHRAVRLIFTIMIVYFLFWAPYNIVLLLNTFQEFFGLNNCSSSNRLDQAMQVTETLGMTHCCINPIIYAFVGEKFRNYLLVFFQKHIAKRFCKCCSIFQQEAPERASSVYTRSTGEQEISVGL

CC1CCN(C(=O)C(CCn2cccc2C#N)NS(=O)(=O)c2cc(Cl)c(N)c(Cl)c2)CC1 (configuration not stated) = > 10 µM

The record that follows has no IC50 shown yet.
// CC1CCN(C(=O)C(CCn2cccc2C#N)NS(=O)(=O)c2cccc3[nH]ccc23)CC1 (racemic) : IC50 value = > 10 µM

---

biological target: C-C chemokine receptor type 10 (Homo sapiens, UniProt P46092); assay: Antagonist activity at human CCR10 expressed in HEK cell membranes assessed as inhibition of human CCL27-dependent europium-labeled GTP binding; set-up: species or system HEK293
property-label: IC50 (nM)
I only need the number, in nM, no unit after it.

CC1CCN(C(=O)C(CCn2cccc2C#N)NS(=O)(=O)c2cc(Cl)c(N)c(Cl)c2)CC1 (configuration not stated) = 20

// CC1CCN(C(=O)C(CCn2cccc2C#N)NS(=O)(=O)c2cccc3[nH]ccc23)CC1 (racemic) : IC50 value = 10
